# credit: the supplement of paper PMC6555819

# Test system: LXRb:RXRa (NR concentration 270 nM, RXRa partner concentration 90 nM)
# ASSAY_TEXT: PBM binding z-score (relative to random genomic background probes); higher = stronger binding; sequences stand for … in GC…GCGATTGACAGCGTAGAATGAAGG
sequences and their reported PBM binding z-score
Format: numeric value only, no unit, no commentary.

Measured PBM binding z-score, TAGCCTAGGTCATTCAGGGGCCAGTATGGAAAGC : 2.81

###

# System: PXR:RXRa (NR concentration 270 nM, RXRa partner concentration 90 nM)
# ASSAY_TEXT: PBM binding z-score (relative to random genomic background probes); higher = stronger binding; sequences stand for … in GC…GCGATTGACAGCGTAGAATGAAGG
READOUT_KIND: PBM binding z-score

// below: answered sequences
CCATGTAGGTTAAGGGGGTCATTCAGTTTGAAAG :: 5.83
TCGAGTAGGTGACGGGGGCATTCAGGGATGAAGA :: 3.15
CCGAGTAGGTTACGAGGGGGCATACAGTGCGAAT :: 4.27
CCGAGTAGGTTACGAGTGGGCATTCAGTGCGAAT :: 0.0829
CTATGTAGGTTAAGGGTGTCATTCAGTTTGAAAG :: 1.38

Measured PBM binding z-score, TTACCAAGGTGACCTGAGGTCGTTGATCCAACTC : 5.57

Measured PBM binding z-score, CCGTGTAGGTTACGAGGGGGCATTCAGTGCGAAT : 5.31

Measured PBM binding z-score, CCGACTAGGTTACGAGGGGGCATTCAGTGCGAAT : 4.6

Measured PBM binding z-score, CCGAGTAGGTGACGAGGGGGCATTCAGTGCGAAT : 4.21

Measured PBM binding z-score, CGAACTAGGTCAAAGGACAGTCAAAGGCGACGTA : 1.39

Measured PBM binding z-score, CTATGCAGGTTAAGGGGGTCATTCAGTTTGAAAG : 5.97

Measured PBM binding z-score, CTATGTAGGTTAAGGGGCTCATTCAGTTTGAAAG : 0.403
